- assay_target: PARP-1 (Homo sapiens, UniProt P09874 1-1014)
- Sequence (P09874 whole entry): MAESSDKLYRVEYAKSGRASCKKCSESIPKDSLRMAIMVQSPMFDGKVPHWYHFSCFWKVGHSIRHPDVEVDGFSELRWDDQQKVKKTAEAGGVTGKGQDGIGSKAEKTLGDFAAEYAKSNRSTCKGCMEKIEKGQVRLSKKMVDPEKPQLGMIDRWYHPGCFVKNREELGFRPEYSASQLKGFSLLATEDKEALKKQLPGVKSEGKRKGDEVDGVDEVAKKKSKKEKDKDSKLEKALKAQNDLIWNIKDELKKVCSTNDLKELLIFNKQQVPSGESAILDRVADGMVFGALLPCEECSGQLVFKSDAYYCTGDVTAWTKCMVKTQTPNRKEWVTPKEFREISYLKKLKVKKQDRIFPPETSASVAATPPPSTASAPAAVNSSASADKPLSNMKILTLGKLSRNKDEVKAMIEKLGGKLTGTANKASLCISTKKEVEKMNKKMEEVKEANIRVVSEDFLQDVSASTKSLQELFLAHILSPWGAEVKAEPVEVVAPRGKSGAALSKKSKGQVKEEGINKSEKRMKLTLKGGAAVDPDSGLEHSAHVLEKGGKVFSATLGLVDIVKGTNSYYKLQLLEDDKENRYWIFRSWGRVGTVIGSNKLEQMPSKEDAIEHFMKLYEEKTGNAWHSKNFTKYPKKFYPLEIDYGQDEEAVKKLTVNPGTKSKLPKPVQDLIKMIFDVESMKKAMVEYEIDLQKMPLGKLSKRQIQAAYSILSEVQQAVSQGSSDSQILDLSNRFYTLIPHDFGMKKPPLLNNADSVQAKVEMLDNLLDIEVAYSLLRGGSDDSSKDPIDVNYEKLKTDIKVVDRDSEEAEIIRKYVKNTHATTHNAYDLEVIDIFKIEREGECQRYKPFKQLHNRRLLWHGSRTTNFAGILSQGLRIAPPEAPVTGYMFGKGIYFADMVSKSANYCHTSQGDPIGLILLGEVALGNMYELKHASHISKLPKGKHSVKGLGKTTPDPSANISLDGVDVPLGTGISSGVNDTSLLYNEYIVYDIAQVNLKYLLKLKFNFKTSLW
- experiment_description: fluorescence anisotropy; 140 mM KCl, 8 mM MgCl2; 25 mM HEPES pH 8.0, 140 mM KCl, 8 mM MgCl2, 50 ug/ml BSA, 0.02 mM TCEP, 4% glycerol, 11.4 mM bME, 5 nM labeled DNA, 30 min room temperature, read at 25 C
- protocol_conditions: protein: recombinant; tags: His-tag (pET28a); blunt
readout_name: Kd (µM)
Reply numerically in µM, unit not repeated.

The reported Kd of the binder 18-bp dsDNA (dsDNA) DNA 1: GGGTTGCGGCCGCTTGGG DNA 2: CCCAAGCGGCCGCAACCC was 0.03
